Target: human A-beta(1-40) peptide, monomeric (BAM) (human, biotin at the C-terminus in capture ELISA, SPR and TR-FRET; not biotinylated where coated directly (Example 7))
Test: cell-based or functional assay
# maps each entry to its inhibition of peptide aggregation (ThT fluorescence), 28 µM VHH
Quantity Name: inhibition of peptide aggregation (ThT fluorescence), 28 µM VHH (%)

Binder: ABII35C7 (VHH) VHH: EVQLVESGGGLVQPGGSLRLSCAASGRTFSIYNMGWFRQAPGKEREFVAAISRSGSSTYYGDSVKGRFTISRDNAKKTVYLQMNSLKPEDTAVYHCAAARFGTPINTRGSYDYWGQGTQVTVSS
Observed Result: 82

Binder: ABII42F5 (VHH) VHH: EVQLVESGGGLVQAGDSLRLSCTASGRTFTDYNIGWFCQAPGKEREFVAAISGSGGSTYYADSAKGRFTISRDNAKNTVYLQMNSLKPEDTAVYACAAAQRRLAVNVDTSYNVWGQGTQVTVSS
Observed Result: 79

Binder: ABII60A10 = ABII050 (VHH) VHH: EVQLVESGGGLVQAGGSLRLSCAASGRTFNNYNMGWFRQAPGKEREFVAAVSRSGVSTYYADSVKGRFTISRDNAKNAVYLQMNSLKPEDTAIYYCGAAYRGTAINVRRSYDSWGQGTQVTVSS
Observed Result: 80

Binder: ABII42E10 (VHH) VHH: EVQLVESGGGLVQPGGSLRLSCAASGLTFTLYTMGWFRQAPGKEREFVAAISASGGTTYYADSVKGRFALSRDNAKNTVFLQMNTLKPEDTAEYLCAAAFRGFAINTPTSYNYWGQGTQVTVSS
Observed Result: 75
